These measurements were taken from paper PMC5285354.

# key: entry, value: MFC Candida albicans
- System: Candida albicans (ATCC 10231)
- Type: cell-based
- STUDY_CONDITIONS: ATCC 10231, 48 h
Where a SMILES comes first, the peptide text is derived from it. The star is where a group is joined. Palmitoyl = CCCCCCCCCCCCCCCC(=O)*; Myristoyl = CCCCCCCCCCCCCC(=O)*; Lauroyl = CCCCCCCCCCCC(=O)*; Octanoyl = CCCCCCCC(=O)*
QUANTITY: MFC Candida albicans (µg/mL)

COMPOUND | TARGET_OR_SYSTEM | UNIT_INFO | READING
CCCCCCCCCCCCCC(=O)N[C@@H](CCCCN)C(=O)NCC(N)=O [C14-KG-NH2] (Myristoyl-Lys-Gly-NH2) | Candida albicans (ATCC 10231) | µg/mL | 128
CCCCCCCCCCCCCC(=O)N[C@@H](CCCCN)C(=O)N[C@@H](CCCCN)C(=O)N[C@@H](CCCCN)C(N)=O | Candida albicans (ATCC 10231) | µg/mL | 128
CCCCCCCCCCCCCC(=O)N[C@@H](CCCCN)C(=O)NCC(=O)N[C@@H](CCCCN)C(=O)NCC(N)=O [C14-KGKG-NH2] (Myristoyl-KGKG-NH2) | Candida albicans (ATCC 10231) | µg/mL | 128
CCCCCCCCCCCC(=O)N[C@@H](CCCCN)C(=O)N[C@@H](CCCCN)C(=O)N[C@@H](CCCCN)C(N)=O | Candida albicans (ATCC 10231) | µg/mL | 1000
CCCCCCCCCCCCCCCC(=O)N[C@@H](CCCCN)C(=O)NCC(N)=O [C16-KG-NH2] (Palmitoyl-Lys-Gly-NH2) | Candida albicans (ATCC 10231) | µg/mL | 128
CCCCCCCC(=O)N[C@@H](CCCCN)C(=O)NCC(=O)N[C@@H](CCCCN)C(=O)NCC(N)=O [C8-KGKG-NH2] (Octanoyl-KGKG-NH2) | Candida albicans (ATCC 10231) | µg/mL | 2000
CCCCCCCCCCCC(=O)N[C@@H](CCCCN)C(=O)NCC(N)=O [C12-KG-NH2] (Lauroyl-Lys-Gly-NH2) | Candida albicans (ATCC 10231) | µg/mL | 512
CCCCCCCCCCCCCC(=O)N[C@@H](CCCCN)C(=O)N[C@@H](CCCCN)C(=O)N[C@@H](CCCCN)C(=O)N[C@@H](CCCCN)C(N)=O [C14-KKKK-NH2] (Myristoyl-KKKK-NH2) | Candida albicans (ATCC 10231) | µg/mL | 128
CCCCCCCCCCCCCCCC(=O)N[C@@H](CCCCN)C(=O)N[C@@H](CCCCN)C(N)=O | Candida albicans (ATCC 10231) | µg/mL | 128
CCCCCCCC(=O)N[C@@H](CCCCN)C(=O)N[C@@H](CCCCN)C(=O)N[C@@H](CCCCN)C(N)=O | Candida albicans (ATCC 10231) | µg/mL | 2000
CCCCCCCCCCCCCC(=O)N[C@@H](CCCCN)C(=O)NCC(=O)N[C@@H](CCCCN)C(N)=O [C14-KGK-NH2] (Myristoyl-Lys-Gly-Lys-NH2) | Candida albicans (ATCC 10231) | µg/mL | 128
CCCCCCCC(=O)N[C@@H](CCCCN)C(=O)N[C@@H](CCCCN)C(N)=O | Candida albicans (ATCC 10231) | µg/mL | 1000
CCCCCCCCCCCCCCCC(=O)N[C@@H](CCCCN)C(=O)N[C@@H](CCCCN)C(=O)N[C@@H](CCCCN)C(N)=O | Candida albicans (ATCC 10231) | µg/mL | 128
